Test system: MILI (PIWIL2) piRISC loaded with L1MC piRNA (26 nt);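 also: 1 nM active piRISC with 0.1 nM target library at 33 °C single turnover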
Test: pre-steady-state target cleavage rate (min^-1); guide: L1MC piRNA 5'p-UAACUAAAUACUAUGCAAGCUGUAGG; higher = faster piRNA-guided slicing of the target
Conditions: auxiliary factor: none (no GTSF1)
Property: pre-steady-state target cleavage rate

Qu. Which pre-steady-state target cleavage rate value belongs to UCCUGGAUCAGCGUUGCAUAGUAUUUAGUUA ?
Ans. 0.00789

Qu. Which pre-steady-state target cleavage rate value belongs to UCCUGGAUGUCCUUGCAUAGUGUUUAGUUA ?
Ans. 0.00445

Qu. Which pre-steady-state target cleavage rate value belongs to UCCUGGAUCAGCUUGCAUAGUAUUUGGUUA ?
Ans. 0.0139

Qu. Which pre-steady-state target cleavage rate value belongs to UCCUCCUACAGCUUGCAUAGUAUUUUCUAA ?
Ans. 0.00357

Qu. Which pre-steady-state target cleavage rate value belongs to UCCUGCUUCAGCUUGCAUAGUAUAUAGUUA ?
Ans. 0.00438

Qu. Which pre-steady-state target cleavage rate value belongs to UCCUGGAUGUCGUUGCAUAGUAUUUAGUGUA ?
Ans. 0.00477

Qu. Which pre-steady-state target cleavage rate value belongs to UCCUGGAUGACGUUGCAUAGUAUUUAGUUA ?
Ans. 0.00683

###

System: MILI (PIWIL2) piRISC loaded with piRNA #1 (26 nt);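 also: 1 nM active piRISC with 0.1 nM target library at 33 °C single turnover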
Assay: pre-steady-state target cleavage rate (min^-1); guide: piRNA #1 5'p-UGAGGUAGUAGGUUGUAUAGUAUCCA; higher = faster piRNA-guided slicing of the target
Settings: auxiliary factor: 500 nM mouse GTSF1
Each record's class is read off its pre-steady-state target cleavage rate using these ranges: low interval = under 0.04, middle interval = from 0.04 up to 0.2, high interval = 0.2 and over

Qu. Band of GGAGAGGAUACUAUACAACGUACUACCUCA ?
Ans. low interval

Qu. Band of GGAGACCUAACUAUACAUCCUACUACCACA ?
Ans. high interval

Qu. Band of GGAGUGGACACUAUACAACCUACUACCUCA ?
Ans. high interval

Qu. Band of GGAGUGGCUACUAUACAACCUACUACCUCA ?
Ans. middle interval

Qu. Band of GGAGACGCUACUAUACAACCUACUACCUCA ?
Ans. high interval

Qu. Band of GGAGUGGAUACAAUACAACGUACUACCUCA ?
Ans. low interval

Qu. Band of GGAGUGGAUUCUAUACUACCUACUACCUCA ?
Ans. middle interval

Qu. Band of GGAGAGGAUACUAUACAACCUACCACCUCA ?
Ans. middle interval

Qu. Band of GGAGACCAUACUAAUGAACCUACUACCUCA ?
Ans. middle interval

Qu. Band of GGAGACCUUUCUAUACAACCUAGUACCUCA ?
Ans. low interval

Qu. Band of GGAGUGGUUACAAUACAACCUACUACCUCA ?
Ans. middle interval

Qu. Band of GGAGACCAUACUAUACAACCUACUAGCCUCA ?
Ans. middle interval

Qu. Band of GGAGACGAUUCUAUACAUCCUACUACCUCA ?
Ans. high interval

Qu. Band of GGAGACCUAUCUAUACUACCUACAACCUCA ?
Ans. middle interval

Qu. Band of GGAGACGAAACUAUACAAGCUACUACCUCA ?
Ans. high interval

Qu. Band of GGAGACCUAUGUAUACAACAUACUACCUCA ?
Ans. low interval

Qu. Band of GGAGACGUUUCUAUACAACCUACUACCUCA ?
Ans. middle interval

Qu. Band of GGAGUGGAUACUAUACAACCUUCUACCUCA ?
Ans. low interval

Qu. Band of GGAGUGGAUACUAUACAACCUAGCUACCUCA ?
Ans. middle interval

Qu. Band of GGAGAGGAUAGUAUACAACCUAGUACCUCA ?
Ans. low interval

###

Tested on: MILI (PIWIL2) piRISC loaded with L1MC piRNA (26 nt);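 also: 1 nM active piRISC with 0.1 nM target library at 33 °C single turnover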
Experiment: pre-steady-state target cleavage rate (min^-1); guide: L1MC piRNA 5'p-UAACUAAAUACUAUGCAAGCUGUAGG; MIWI and MILI are mouse PIWI proteins and EfPiwi is from a freshwater sponge; tags in brackets are library labels; higher = faster piRNA-guided slicing of the target
Details: auxiliary factor: 500 nM mouse GTSF1
Each record's class is read off its pre-steady-state target cleavage rate using these ranges: bin 0 (below 0.07), bin 1 (0.07 to below 0.2), bin 2 (0.2 or more)

Qu. Band of UCCUCCUACAGCUUGCUUAGUAUUUAGUUA ?
Ans. bin 2

Qu. Band of UCCUCCUACAGAUUGCAUAGUAUUUAGUUA ?
Ans. bin 2

Qu. Band of UCCUCCUACAGCUUGGAUUGUAUUUAGUUA ?
Ans. bin 1

Qu. Band of UCCUGGAUGUCCUUGCAUAGUAUUUAGAUUA ?
Ans. bin 1

Qu. Band of UCCUGCUACUGCUUGCAUAGUAAUUAGUUA ?
Ans. bin 1

Qu. Band of UCCUCCUACAGGAAGCAUAGUAUUUUCAAA ?
Ans. bin 0

Qu. Band of UCCUGGAUGUCGAUGCAUAGUAUUUUCUUA ?
Ans. bin 0

Qu. Band of UCCUGGAUGUCGAAGCUUAGUAUUUAGUUA ?
Ans. bin 0

Qu. Band of UCCUGGAUGAGCUUGCAUAGUAUAAUGUUA ?
Ans. bin 2

Qu. Band of UCCUGGAUGUCGAUGCAUAGUAUUUAGUUC [g2:g17:cont:t1C] ?
Ans. bin 0

Qu. Band of UCCUGCUACAGCUUGCAAAGUAUUAAGUUA ?
Ans. bin 1

Qu. Band of UCCUGGAACAGCUUGCAAAGUAUUUUGUUA ?
Ans. bin 1

Qu. Band of UCCUCCUACAGCUUGCAUAGUAAAUUCAAA ?
Ans. bin 1

Qu. Band of UCCUGGAUGAGCUUGCAUAGUAUUAUGAAA ?
Ans. bin 0

Qu. Band of UCCUGGAUGAGCUUGCAUAGUAUUUAGUAA ?
Ans. bin 2

Qu. Band of UCCUGGAUCAGCUGUGCAUAGUAUUUAGUUA ?
Ans. bin 2

Qu. Band of UCCUGCUACAGCUUGCAUAGAUUUUACAAA ?
Ans. bin 0

Qu. Band of UCCUGGAUGUGCCUGCAUAGUAUUUAGUUA ?
Ans. bin 1

Qu. Band of UCCUGGAUGUCGUUGCUUAGUAUUAAGUUA ?
Ans. bin 0

Qu. Band of UCCUCCUACAGCUUGCUUAGAAUUUAGUUA ?
Ans. bin 0

Qu. Band of UCCUGGAUGAGCUUGCAUAGUACUUAGUUA ?
Ans. bin 1

Qu. Band of UCCUGGUAGCAGCUUGCAUAGUAUUUAGUUA ?
Ans. bin 2

Qu. Band of UCCUGCUACAGCUUGCAUAGUAUAAAGAAA ?
Ans. bin 0

Qu. Band of UCCUGGUAGAGCUUGCAUAGAAUUUAGUUA ?
Ans. bin 0

Qu. Band of UCCUGCUACAGCUUGCAUAGUCUUUAGUUA ?
Ans. bin 1

Qu. Band of UCCUGGAUCAGGAAGCAUAGUAUUUAGUUA ?
Ans. bin 0

Qu. Band of UCCUGGUACAGCUUGCUUAGUAUUUACAAA ?
Ans. bin 0

Qu. Band of UCCUGGAUGUCGAUGCAUAGUAUCUAGUUA ?
Ans. bin 1

Qu. Band of UCCUGGUACAGCUAGCAAAGUAUUUAGUUA ?
Ans. bin 1

Qu. Band of UCCUGGAUGUCGAUGCAUAGUACUUUAGUUA ?
Ans. bin 0

Qu. Band of UCCUCCUAUCAGCUUGCAUAGUAUUUAGUUA ?
Ans. bin 2

Qu. Band of UCCUCCUACUGCUUGCUUAGUAUUUAGUUA ?
Ans. bin 2

Qu. Band of UCCUGCUACAGCUUGCAUAGUAUUAAGUAA ?
Ans. bin 1

Qu. Band of UCCUGCAUGAGCUUGCAUAGUAUUUAGUAA ?
Ans. bin 2

Qu. Band of UCCUGGAACAGCUUGCAUAGUAUUUAGUGA ?
Ans. bin 2

Qu. Band of UCCUGGAUGUCGAUGCAUAGUAUUUAGAUUA ?
Ans. bin 0

Qu. Band of UCCUGGAUGAGCUAGCAUAGUAUUUAGAAA ?
Ans. bin 2

Qu. Band of UCCUGGAUGUCCUUGCAUUGAAUUUAGUUA ?
Ans. bin 0

Qu. Band of UCCUGGUACAGCAUGCAUAGUAUUUAGUUA ?
Ans. bin 2

Qu. Band of UCCUGCUACAGCUUGCAUAGAAUUUACUUA ?
Ans. bin 1

Qu. Band of UCCUGGAUCAGCUUGCAUAGUAUUUAGUA ?
Ans. bin 2

Qu. Band of UCCUCCUACAGCUUGCAUAGUUUUAAGUUA ?
Ans. bin 0

Qu. Band of UCCUGGUACAGCUGUGCAUAGUAUUUAGUUA ?
Ans. bin 2

Qu. Band of UCCUGGAUCAGCUUGCACUAGUAUUUAGUUA ?
Ans. bin 0

Qu. Band of UCCUGGAUGUGCUUGCAUAGUAAUAAGUUA ?
Ans. bin 0

Qu. Band of UCCUGGUACAGCUUGCCUAGUAUUUAGUUA ?
Ans. bin 2

Qu. Band of UCCUGGAUCACCUUGCUUAGUAUUUAGUUA ?
Ans. bin 1

Qu. Band of UCCUCGUACAGCUUGCUUAGUAUUUAGUUA ?
Ans. bin 2

Qu. Band of UCCUCCUACAGCUUGCUUAGUAUAUAGUUA ?
Ans. bin 2

Qu. Band of UCCUGGAACAGCUUGGUUAGUAUUUAGUAA ?
Ans. bin 1

Qu. Band of UCCUGGAUCAGCUUGGAAAGUAUUUAGUUA ?
Ans. bin 1

Qu. Band of UCCUGGAUGUGCUUGCAAAGUUUUUAGUUA ?
Ans. bin 0

Qu. Band of UCCUGCUACAGCUUGUAUAGUAUUUAGUUA ?
Ans. bin 2
